From: patent US11389447B2

Assay: Kinetic study: plasma kinetics of TMC278 after single IM or SC injection of a nanosuspension
Format: in vivo, male beagle dogs
Conditions: male, beagle, dog, plasma, intramuscular, 5 mg/kg, plasma concentration of TMC278, single IM 5 mg/kg TMC278 nanosuspension, dog 18186, 48 h (d2)
Property name: concentration at 48 h (ng/mL)
Response body: numeric value in ng/mL, unit text excluded.

The recorded concentration at 48 h for Cc1cc(C=CC#N)cc(C)c1Nc1ccnc(Nc2ccc(C#N)cc2)n1 is 132

* * *

Assay: Kinetic study: plasma kinetics of TMC278 after single IM or SC injection of a nanosuspension;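 note: healthy male beagle dogs injected in both biceps femoris muscles (IM) or both thoracal sides (SC), total volume 0.2 mL/kg, drug measured in plasma from blood samples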
Type: in vivo, male beagle dogs
Settings: male, beagle, dog, plasma, intramuscular, 5 mg/kg, plasma concentration of TMC278, single IM 5 mg/kg TMC278 nanosuspension, dog 17264, 72 h (d3)
Property name: concentration at 72 h (ng/mL)
Response body: numeric value in ng/mL, unit text excluded.

The recorded concentration at 72 h for Cc1cc(C=CC#N)cc(C)c1Nc1ccnc(Nc2ccc(C#N)cc2)n1 is 115
